Every entry's value here was drawn from the supplement of paper PMC10567573.

B1: STX11 (parent)
chain: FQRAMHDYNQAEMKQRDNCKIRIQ

Variants of: B1
Experiment: protein stability index of a GFP-peptide fusion (GPS, HEK-293T) (PSI 1-6); higher = more stable;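 also: lentivirally expressed fusions sorted by FACS into six bins by GFP to DsRed ratio, PSI derived from sequencing read proportions per bin multiplied by bin number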
Settings: c terminus: a fixed tail appended
measured.parameter: protein stability index

E12D    2.5
M5A    3.93
R22I    2.58
F1H    4.18
H6P    2.5
I21N    2.98
M13P    3.11
Q10A    3.1

Consider the additional variant presented here.
Quick note, protein stability index for `F1V` landed at 3.46
